biological target: Serine/threonine-protein kinase D2 (Homo sapiens); conditions: at 1 µM;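 further: mean value of PRKD2 inhibition, from the GSK PKIS screening panel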
measured property: inhibition (%)
Express the result in % but write the number alone.

// inhibition lookup, compound = `C/C(Nc1ccc(S(N)(=O)=O)cc1)=C1/C(=O)Nc2ccccc21` , result: 11.3

// inhibition lookup, compound = `COc1cc2ncn(-c3cc(OCCc4ccccc4)c(C(N)=O)s3)c2cc1OC` , result: 4.84

// inhibition lookup, compound = `C[C@@H](Oc1cc(-n2cnc3ccc(OC4CCN(C)CC4)cc32)sc1C(N)=O)c1ccccc1Cl` , result: 1.06

// inhibition lookup, compound = `COc1cc(Nc2ncc3c(C)nc(-c4cccc(C(F)(F)F)c4)n3n2)cc(OC)c1OC` , result: 4.32

// inhibition lookup, compound = `COc1cc(Nc2ncc3c(C)nc(-c4cccc(Oc5ccccc5)c4)n3n2)cc(OC)c1OC` , result: 3

// inhibition lookup, compound = `CCS(=O)(=O)c1ccc(OC)c(Nc2ncc(-c3ccccc3Cl)o2)c1` , result: 1.98

// inhibition lookup, compound = `COc1cccc(-n2cnc3c(N/N=C/c4ccncc4)ncnc32)c1` , result: -5.5

// inhibition lookup, compound = `COc1ccc2ncn(-c3cc(O[C@H](C)c4ccccc4Cl)c(C(N)=O)s3)c2c1` , result: -2.98

// inhibition lookup, compound = `CS(=O)(=O)CCNCc1cc(-c2cc3c(Nc4ccc(OCc5cccc(F)c5)c(Cl)c4)ncnc3s2)cs1` , result: 4.68

Data origin, for the record: ChEMBL document CHEMBL1961873
